# Test system: Na^+ channel (site 2)
# run.description: Binding Na+ channel (site 2) (aa)
# Design: species or system rat
endpoint.label: % Inhibition of Control Specific Binding @ 10 μM (%)
# unit: % | format: bare number

Please review the entries below; each comes with its answer.
The recorded % Inhibition of Control Specific Binding @ 10 μM for `CC1(C)C(=O)N(c2ccc(C#N)c(C(F)(F)F)c2)C(=S)N1c1ccc(C(=O)O)c(F)c1` is −5

The recorded % Inhibition of Control Specific Binding @ 10 μM for `CC1(C)C(=O)N(c2ccc(C#N)c(C(F)(F)F)c2)C(=S)N1c1ccc(C(N)=O)c(F)c1` is 13

New cases:
The recorded % Inhibition of Control Specific Binding @ 10 μM for `CC1(C)C(=O)N(c2ccc(C#N)c(C(F)(F)F)c2)C(=O)N1c1ccc(C(N)=O)c(F)c1` is 1

The recorded % Inhibition of Control Specific Binding @ 10 μM for `CNC(=O)c1ccc(N2C(=O)N(c3ccc(C#N)c(C(F)(F)F)c3)C(=O)C2(C)C)cc1F` is 5

###

# Tested on: Ca^2+ channel (L, verapamil site) (phenylalkylamine)
# run.description: Binding Ca2+ channel (L, verapamil site) (aa)
# Set-up: species or system rat
endpoint.label: % Inhibition of Control Specific Binding @ 10 μM (%)
# unit: % | format: bare number

Entry `CC1(C)C(=O)N(c2ccc(C#N)c(C(F)(F)F)c2)C(=O)N1c1ccc(C(N)=O)c(F)c1` , tested on Ca^2+ channel (L, verapamil site) (phenylalkylamine), has a reported % Inhibition of Control Specific Binding @ 10 μM of −1

New cases:
Entry `CNC(=O)c1ccc(N2C(=O)N(c3ccc(C#N)c(C(F)(F)F)c3)C(=O)C2(C)C)cc1F` , tested on Ca^2+ channel (L, verapamil site) (phenylalkylamine), has a reported % Inhibition of Control Specific Binding @ 10 μM of −5

Entry `CC1(C)C(=O)N(c2ccc(C#N)c(C(F)(F)F)c2)C(=S)N1c1ccc(C(=O)O)c(F)c1` , tested on Ca^2+ channel (L, verapamil site) (phenylalkylamine), has a reported % Inhibition of Control Specific Binding @ 10 μM of −2

Entry `CC1(C)C(=O)N(c2ccc(C#N)c(C(F)(F)F)c2)C(=S)N1c1ccc(C(N)=O)c(F)c1` , tested on Ca^2+ channel (L, verapamil site) (phenylalkylamine), has a reported % Inhibition of Control Specific Binding @ 10 μM of −13

###

# assayed.target: Histamine H1 (h) (Homo sapiens, UniProt P35367)
# Construct: expressed in transfected cells; host or cells: HEK-293 cells
# Sequence (P35367 whole entry): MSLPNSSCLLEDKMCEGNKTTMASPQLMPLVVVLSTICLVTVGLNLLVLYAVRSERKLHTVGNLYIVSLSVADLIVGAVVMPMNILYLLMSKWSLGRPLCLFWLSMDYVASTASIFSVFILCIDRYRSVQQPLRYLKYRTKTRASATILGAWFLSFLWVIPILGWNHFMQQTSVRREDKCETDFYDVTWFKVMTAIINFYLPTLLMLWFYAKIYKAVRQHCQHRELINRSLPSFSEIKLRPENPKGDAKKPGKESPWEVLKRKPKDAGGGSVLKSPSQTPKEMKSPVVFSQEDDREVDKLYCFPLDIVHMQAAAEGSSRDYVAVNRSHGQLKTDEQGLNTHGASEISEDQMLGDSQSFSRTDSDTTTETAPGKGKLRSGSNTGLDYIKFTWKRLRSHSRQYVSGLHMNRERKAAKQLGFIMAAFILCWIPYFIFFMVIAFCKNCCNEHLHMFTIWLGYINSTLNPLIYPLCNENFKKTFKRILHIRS
# run.description: Binding H1 (h) (aa)
# condition.set: read-out: % Inhibition of Control Specific Binding @ 10 μM
endpoint.label: inhibition at 10 µM (%)
# unit: % | format: bare number

The recorded inhibition at 10 µM for `CC1(C)C(=O)N(c2ccc(C#N)c(C(F)(F)F)c2)C(=O)N1c1ccc(C(N)=O)c(F)c1` is -2

The recorded inhibition at 10 µM for `CC1(C)C(=O)N(c2ccc(C#N)c(C(F)(F)F)c2)C(=S)N1c1ccc(C(=O)O)c(F)c1` is -8

The recorded inhibition at 10 µM for `CC1(C)C(=O)N(c2ccc(C#N)c(C(F)(F)F)c2)C(=S)N1c1ccc(C(N)=O)c(F)c1` is 2

The recorded inhibition at 10 µM for `CNC(=O)c1ccc(N2C(=O)N(c3ccc(C#N)c(C(F)(F)F)c3)C(=O)C2(C)C)cc1F` is -11

###

# assayed.target: Vasopressin V1a (h) (Homo sapiens)
# Construct: expressed in transfected cells; host or cells: CHO cells
# Sequence (P37288 whole entry): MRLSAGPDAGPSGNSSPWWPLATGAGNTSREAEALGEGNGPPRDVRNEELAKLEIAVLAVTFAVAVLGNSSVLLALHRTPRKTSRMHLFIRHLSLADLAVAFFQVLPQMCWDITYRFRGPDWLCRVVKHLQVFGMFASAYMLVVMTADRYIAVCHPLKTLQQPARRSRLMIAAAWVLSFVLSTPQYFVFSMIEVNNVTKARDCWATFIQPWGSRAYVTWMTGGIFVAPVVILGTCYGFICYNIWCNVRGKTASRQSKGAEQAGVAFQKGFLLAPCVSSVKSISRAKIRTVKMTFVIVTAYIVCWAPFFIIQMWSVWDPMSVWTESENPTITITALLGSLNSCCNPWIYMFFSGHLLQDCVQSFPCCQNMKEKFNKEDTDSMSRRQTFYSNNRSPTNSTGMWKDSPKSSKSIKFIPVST
# run.description: Binding V1a (h) (ag)
# condition.set: read-out: % Inhibition of Control Specific Binding @ 10 μM
endpoint.label: inhibition at 10 µM
Please answer using a numeric value trailed by its unit.

Please review the entries below; each comes with its answer.
The recorded inhibition at 10 µM for CNC(=O)c1ccc(N2C(=O)N(c3ccc(C#N)c(C(F)(F)F)c3)C(=O)C2(C)C)cc1F [(MIV)] is -8%

The recorded inhibition at 10 µM for CC1(C)C(=O)N(c2ccc(C#N)c(C(F)(F)F)c2)C(=S)N1c1ccc(C(N)=O)c(F)c1 [(MII)] is 15%

The recorded inhibition at 10 µM for CC1(C)C(=O)N(c2ccc(C#N)c(C(F)(F)F)c2)C(=O)N1c1ccc(C(N)=O)c(F)c1 [(MIII)] is -1%

With those in mind, consider the next compound.
The recorded inhibition at 10 µM for CC1(C)C(=O)N(c2ccc(C#N)c(C(F)(F)F)c2)C(=S)N1c1ccc(C(=O)O)c(F)c1 [(MI)] is 2%

###

# assayed.target: 5-HT transporter (h) (Homo sapiens)
# Construct: expressed in transfected cells; host or cells: CHO cells
# Sequence (P31645 whole entry): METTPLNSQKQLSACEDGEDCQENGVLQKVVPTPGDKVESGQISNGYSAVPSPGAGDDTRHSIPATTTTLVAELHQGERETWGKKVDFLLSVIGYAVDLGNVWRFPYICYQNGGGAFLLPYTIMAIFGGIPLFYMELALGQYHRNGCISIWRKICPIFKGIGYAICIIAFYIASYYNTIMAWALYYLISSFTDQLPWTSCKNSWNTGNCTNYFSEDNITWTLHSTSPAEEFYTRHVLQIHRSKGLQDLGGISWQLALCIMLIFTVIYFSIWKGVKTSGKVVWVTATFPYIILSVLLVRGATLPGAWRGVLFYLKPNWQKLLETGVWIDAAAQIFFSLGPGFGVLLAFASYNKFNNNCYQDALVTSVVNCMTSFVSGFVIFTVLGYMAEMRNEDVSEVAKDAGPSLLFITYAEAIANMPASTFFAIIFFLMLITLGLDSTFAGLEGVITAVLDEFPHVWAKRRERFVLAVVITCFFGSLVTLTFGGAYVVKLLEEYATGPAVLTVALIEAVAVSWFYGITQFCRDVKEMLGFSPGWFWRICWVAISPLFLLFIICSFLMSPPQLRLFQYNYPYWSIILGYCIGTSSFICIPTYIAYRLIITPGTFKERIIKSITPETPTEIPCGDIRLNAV
# run.description: Binding 5-HT transporter (h) (aa)
# condition.set: read-out: % Inhibition of Control Specific Binding @ 10 μM
# inhibition at 10 µM annotations
# unit: % | format: bare number

Please review the entries below; each comes with its answer.
The recorded inhibition at 10 µM for `CC1(C)C(=O)N(c2ccc(C#N)c(C(F)(F)F)c2)C(=S)N1c1ccc(C(=O)O)c(F)c1` is 1

The recorded inhibition at 10 µM for `CNC(=O)c1ccc(N2C(=O)N(c3ccc(C#N)c(C(F)(F)F)c3)C(=O)C2(C)C)cc1F` is 18

The recorded inhibition at 10 µM for `CC1(C)C(=O)N(c2ccc(C#N)c(C(F)(F)F)c2)C(=O)N1c1ccc(C(N)=O)c(F)c1` is 13

With those in mind, consider the next compound.
The recorded inhibition at 10 µM for `CC1(C)C(=O)N(c2ccc(C#N)c(C(F)(F)F)c2)C(=S)N1c1ccc(C(N)=O)c(F)c1` is 16

###

# inhibition at 10 µM annotations
# assayed.target: tyrosine hydroxylase (Rattus norvegicus, UniProt P04177)
# Construct: rat striatum; from tissue; host or cells: rat striatum
# Sequence (P04177 whole entry): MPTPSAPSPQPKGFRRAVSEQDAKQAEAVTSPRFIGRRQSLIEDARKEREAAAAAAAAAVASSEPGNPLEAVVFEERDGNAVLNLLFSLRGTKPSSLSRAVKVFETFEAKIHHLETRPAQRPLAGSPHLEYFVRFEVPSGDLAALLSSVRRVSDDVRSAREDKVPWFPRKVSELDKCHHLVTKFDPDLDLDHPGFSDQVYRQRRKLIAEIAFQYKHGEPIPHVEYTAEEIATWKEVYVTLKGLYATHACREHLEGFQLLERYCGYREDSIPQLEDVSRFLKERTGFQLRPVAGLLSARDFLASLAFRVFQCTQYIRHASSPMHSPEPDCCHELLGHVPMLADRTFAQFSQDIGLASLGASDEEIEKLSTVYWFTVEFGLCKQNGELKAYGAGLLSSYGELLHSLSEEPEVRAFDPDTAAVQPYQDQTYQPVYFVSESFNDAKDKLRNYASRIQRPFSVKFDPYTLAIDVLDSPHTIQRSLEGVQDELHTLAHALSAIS
# run.description: Enzyme assay tyrosine hydroxylase
# Type: biochemical
# condition.set: read-out: % Inhibition of Control Values @ 10 μM
# unit: % | format: bare number

Please review the entries below; each comes with its answer.
Entry `CNC(=O)c1ccc(N2C(=O)N(c3ccc(C#N)c(C(F)(F)F)c3)C(=O)C2(C)C)cc1F` , tested on tyrosine hydroxylase (Rattus norvegicus, UniProt P04177), has a reported inhibition at 10 µM of -2

Entry `CC1(C)C(=O)N(c2ccc(C#N)c(C(F)(F)F)c2)C(=O)N1c1ccc(C(N)=O)c(F)c1` , tested on tyrosine hydroxylase (Rattus norvegicus, UniProt P04177), has a reported inhibition at 10 µM of -2

Entry `CC1(C)C(=O)N(c2ccc(C#N)c(C(F)(F)F)c2)C(=S)N1c1ccc(C(=O)O)c(F)c1` , tested on tyrosine hydroxylase (Rattus norvegicus, UniProt P04177), has a reported inhibition at 10 µM of -4

With those in mind, consider the next molecule.
Entry `CC1(C)C(=O)N(c2ccc(C#N)c(C(F)(F)F)c2)C(=S)N1c1ccc(C(N)=O)c(F)c1` , tested on tyrosine hydroxylase (Rattus norvegicus, UniProt P04177), has a reported inhibition at 10 µM of 2

###

# System: Muscarinic M (ns)
# run.description: Binding M (ns) (aa)
# Parameters: species or system rat
endpoint.label: % Inhibition of Control Specific Binding @ 10 μM (%)
# unit: % | format: bare number

Please review the entries below; each comes with its answer.
Entry CC1(C)C(=O)N(c2ccc(C#N)c(C(F)(F)F)c2)C(=O)N1c1ccc(C(N)=O)c(F)c1 [(MIII)] , tested on Muscarinic M (ns), has a reported % Inhibition of Control Specific Binding @ 10 μM of 20

Entry CNC(=O)c1ccc(N2C(=O)N(c3ccc(C#N)c(C(F)(F)F)c3)C(=O)C2(C)C)cc1F [(MIV)] , tested on Muscarinic M (ns), has a reported % Inhibition of Control Specific Binding @ 10 μM of 25

Entry CC1(C)C(=O)N(c2ccc(C#N)c(C(F)(F)F)c2)C(=S)N1c1ccc(C(N)=O)c(F)c1 [(MII)] , tested on Muscarinic M (ns), has a reported % Inhibition of Control Specific Binding @ 10 μM of 1

With those in mind, consider the next molecule.
Entry CC1(C)C(=O)N(c2ccc(C#N)c(C(F)(F)F)c2)C(=S)N1c1ccc(C(=O)O)c(F)c1 [(MI)] , tested on Muscarinic M (ns), has a reported % Inhibition of Control Specific Binding @ 10 μM of 18

###

# inhibition at 10 µM annotations
# assayed.target: Bradykinin B1 (h) (Homo sapiens)
# Construct: expressed in transfected cells; host or cells: CHO cells
# Sequence (P46663 whole entry): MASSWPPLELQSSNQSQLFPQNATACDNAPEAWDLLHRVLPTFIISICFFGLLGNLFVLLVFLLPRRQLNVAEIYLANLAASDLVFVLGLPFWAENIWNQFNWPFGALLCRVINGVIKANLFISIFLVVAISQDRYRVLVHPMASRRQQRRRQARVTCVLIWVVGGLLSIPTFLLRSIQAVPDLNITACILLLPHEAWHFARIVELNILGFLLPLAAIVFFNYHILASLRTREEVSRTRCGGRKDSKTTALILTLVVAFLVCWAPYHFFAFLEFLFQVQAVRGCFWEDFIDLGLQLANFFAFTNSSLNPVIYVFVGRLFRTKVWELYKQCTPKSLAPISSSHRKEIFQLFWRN
# run.description: Binding B1 (h) (ag)
# condition.set: read-out: % Inhibition of Control Specific Binding @ 10 μM

The recorded inhibition at 10 µM for `CC1(C)C(=O)N(c2ccc(C#N)c(C(F)(F)F)c2)C(=O)N1c1ccc(C(N)=O)c(F)c1` is 5%

New cases:
The recorded inhibition at 10 µM for `CNC(=O)c1ccc(N2C(=O)N(c3ccc(C#N)c(C(F)(F)F)c3)C(=O)C2(C)C)cc1F` is 4%

The recorded inhibition at 10 µM for `CC1(C)C(=O)N(c2ccc(C#N)c(C(F)(F)F)c2)C(=S)N1c1ccc(C(N)=O)c(F)c1` is 6%

The recorded inhibition at 10 µM for `CC1(C)C(=O)N(c2ccc(C#N)c(C(F)(F)F)c2)C(=S)N1c1ccc(C(=O)O)c(F)c1` is 0%
